Target: T1, human collagen type I, acid soluble, extracted from placenta (Sigma C7774) (human, UniProt P02452 162-1218; P08123 80-1119)
T1 construct: tissue extract, gelled and dried in wells; also called dried human collagen; h-Collagen
T1 sequence (P02452 162-1218 limits assumed, chain 1 of 2): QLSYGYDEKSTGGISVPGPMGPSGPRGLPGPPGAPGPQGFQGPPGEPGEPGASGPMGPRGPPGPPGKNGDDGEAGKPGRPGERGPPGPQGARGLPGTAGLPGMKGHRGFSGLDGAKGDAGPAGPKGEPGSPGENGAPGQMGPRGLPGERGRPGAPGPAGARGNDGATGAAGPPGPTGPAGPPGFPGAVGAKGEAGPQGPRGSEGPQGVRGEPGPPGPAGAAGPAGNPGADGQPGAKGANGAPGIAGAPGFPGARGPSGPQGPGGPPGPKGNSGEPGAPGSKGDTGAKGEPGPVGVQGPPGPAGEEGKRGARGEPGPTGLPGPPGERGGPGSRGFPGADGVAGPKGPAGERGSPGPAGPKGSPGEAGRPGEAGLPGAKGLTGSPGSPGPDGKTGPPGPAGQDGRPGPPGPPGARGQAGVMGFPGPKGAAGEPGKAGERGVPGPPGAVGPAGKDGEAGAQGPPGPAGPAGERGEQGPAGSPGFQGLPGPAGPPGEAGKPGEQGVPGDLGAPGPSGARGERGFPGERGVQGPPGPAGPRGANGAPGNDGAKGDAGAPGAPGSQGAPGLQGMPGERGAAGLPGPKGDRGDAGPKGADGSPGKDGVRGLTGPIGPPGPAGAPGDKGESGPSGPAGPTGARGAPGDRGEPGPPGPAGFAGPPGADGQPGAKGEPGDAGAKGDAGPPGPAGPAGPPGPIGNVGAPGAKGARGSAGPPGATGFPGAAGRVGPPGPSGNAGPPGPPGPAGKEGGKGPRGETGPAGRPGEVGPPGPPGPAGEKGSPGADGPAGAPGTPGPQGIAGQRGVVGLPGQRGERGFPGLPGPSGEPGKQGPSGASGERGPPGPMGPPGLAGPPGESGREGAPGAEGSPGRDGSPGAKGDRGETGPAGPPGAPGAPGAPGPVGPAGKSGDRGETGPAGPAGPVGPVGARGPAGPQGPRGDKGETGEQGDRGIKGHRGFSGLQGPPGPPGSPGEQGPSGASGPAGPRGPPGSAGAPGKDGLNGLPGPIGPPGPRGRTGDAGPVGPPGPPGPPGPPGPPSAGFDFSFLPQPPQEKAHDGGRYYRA
T1 sequence (P08123 80-1119 limits assumed, chain 2 of 2): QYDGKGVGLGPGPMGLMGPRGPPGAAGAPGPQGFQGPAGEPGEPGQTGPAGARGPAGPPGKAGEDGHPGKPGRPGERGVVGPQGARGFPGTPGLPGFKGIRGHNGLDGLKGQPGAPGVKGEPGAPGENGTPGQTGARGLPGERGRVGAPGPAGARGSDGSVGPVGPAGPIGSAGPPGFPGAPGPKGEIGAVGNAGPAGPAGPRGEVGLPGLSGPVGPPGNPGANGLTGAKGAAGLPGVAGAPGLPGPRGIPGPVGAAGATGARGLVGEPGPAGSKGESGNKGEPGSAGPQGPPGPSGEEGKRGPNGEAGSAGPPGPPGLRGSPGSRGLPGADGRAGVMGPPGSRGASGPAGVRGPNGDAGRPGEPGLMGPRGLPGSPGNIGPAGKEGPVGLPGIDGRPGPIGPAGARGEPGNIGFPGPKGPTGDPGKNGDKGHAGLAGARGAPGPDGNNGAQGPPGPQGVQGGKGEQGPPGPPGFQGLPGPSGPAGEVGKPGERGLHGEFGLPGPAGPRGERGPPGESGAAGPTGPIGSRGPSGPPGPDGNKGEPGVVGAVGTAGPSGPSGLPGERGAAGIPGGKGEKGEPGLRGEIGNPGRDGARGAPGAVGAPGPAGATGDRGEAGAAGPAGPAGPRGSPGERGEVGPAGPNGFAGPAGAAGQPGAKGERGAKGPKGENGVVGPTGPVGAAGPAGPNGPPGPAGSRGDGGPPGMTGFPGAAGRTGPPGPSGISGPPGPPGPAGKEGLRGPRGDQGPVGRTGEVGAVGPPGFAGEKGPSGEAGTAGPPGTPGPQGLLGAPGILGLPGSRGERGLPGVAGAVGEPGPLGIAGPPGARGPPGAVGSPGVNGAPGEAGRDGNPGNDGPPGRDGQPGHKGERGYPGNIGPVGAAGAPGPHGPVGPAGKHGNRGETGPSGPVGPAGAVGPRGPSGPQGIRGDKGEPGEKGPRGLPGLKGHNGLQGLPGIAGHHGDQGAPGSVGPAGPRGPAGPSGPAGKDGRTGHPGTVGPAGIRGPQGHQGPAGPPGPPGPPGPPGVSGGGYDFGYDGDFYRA
Experiment: dried collagen assay
Bridge positions count the residues as written; N and C are the ends. Square brackets hold non-standard residues; d marks the D form. Primed or numbered codes have the meaning given here. Side chains are listed from the residue outwards. Ends that are not written are not given here. Gd^D = GdDOTAGA (gadolinium DOTAGA chelate); Bip = N[C@@H](Cc1ccc(-c2ccccc2)cc1)C(=O)O; Gd^T(3) = GdDTPA attached via thiourea; 2Nal = N[C@@H](Cc1ccc2ccccc2c1)C(=O)O; 4Pal = N[C@@H](Cc1ccncc1)C(=O)O; Gd^T = not defined here; Gd^T″ = GdDTPA-thiourea
Hi! Just check whether % bound is below 70%. Below gives yes (1), equal or above gives no (0).

{Gd^T″}-GYK([Tyr-Gly-Gd^T″])WHCTTYFPHHYCLYG (disulfide 6-15 (inferred); not fully specified (C-terminus)) [Compound ID 981]: no (0)
{Gd^T″}-GK([Gly-Gd^T″])WHCYTK(Gd^T″)FPHHYCVY[Bip] (disulfide 5-14) [Compound ID 1004]: no (0)
{Gd^T″}-GQWHCT[dT]RFPHHYCLYG (disulfide 5-14 (inferred)) [Compound ID 879]: yes (1)
{Gd^T″}-GQWACTTRFPHHYCLYG (disulfide 5-14 (inferred)) [Compound ID 876]: yes (1)
{Gd^T″}-GK([Gly-Gd^T″])WHCYTK(Gd^T″)FPHHYCVY[Bip]R (disulfide 5-14) [Compound ID 1009]: no (0)
{Gd^T(3)}-GQWHCTTD[2Nal]PHHYCLYG (disulfide 5-14; not fully specified (C-terminus)) [Compound ID 894]: yes (1)
{Gd^D}-GK([Gly-Gd^D])WHCTTK(Gd^D)FPHHYCLY[Bip] (disulfide 5-14) [Compound ID 1001]: no (0)
{Gd^T}-DWTC[4Pal]GDEYTWHCNYE (disulfide 4-13; not fully specified (C-terminus); reading uncertain) [Compound ID 849]: yes (1)
GQWHCYTLFPHHYCLYG (disulfide 5-14 (inferred); not fully specified (N-terminus)) [Compound ID 920]: yes (1)
